Catalogue of pIC50 values
# target.entity: c-Raf (Homo sapiens)
# assay.method.text: Luciferase-coupled chemiluminescence kinase assay (ATP consumption), c-Raf
# Assay type: biochemical
# run.conditions: read-out: cRaf-1 (inhibition indicated as IC50)
pIC50: −log10 of the molar value.

INSERT INTO results (compound, observed) VALUES
  ('COC(=O)Nc1nc2ccc(C3(O)c4c(F)ccc(F)c4C(=O)N3c3cccc(Cl)c3F)cc2[nH]1 (stereo not shown)', '> 7.00'),
  ('COC(=O)Nc1nc2ccc(C(=O)c3ccccc3C(=O)NCc3cccs3)cc2[nH]1', '> 7.00'),
  ('O=C(Nc1nc2ccc(C3(O)c4ccccc4C(=O)N3c3cccc(Cl)c3F)cc2[nH]1)OCCN1CCOCC1 (stereo not shown)', '> 7.00'),
  ('O=C(Cc1cccs1)Nc1nc2cc(C3(O)c4ccccc4C(=O)N3c3cccc(Cl)c3F)ccc2[nH]1 (stereo not shown)', '> 7.00'),
  ('C#CCCC(=O)Nc1nc2ccc(C(=O)c3ccccc3C(=O)Nc3ccc(F)cc3)cc2[nH]1', '> 7.00'),
  ('C=Cc1cccc(NC(=O)c2ccccc2C(=O)c2ccc3nc(NC(=O)OC)[nH]c3c2)c1F', '> 7.00');

Item under review: O=C(Nc1nc2ccc(C3(O)c4ccccc4C(=O)N3c3ccc(F)cc3)cc2[nH]1)OCCCN1CCCCC1 (stereo not shown) . Reported pIC50?
> 7.00

Field request: pIC50 | item: COC(=O)Nc1nc2cc(C3(O)c4ccccc4C(=O)N3c3ccccc3Oc3ccccc3)ccc2[nH]1 (stereo not shown)
6.00 to 7.00

State the recorded pIC50 for this entry: Cc1cccc(N2C(=O)c3ccccc3C2(O)c2ccc3nc(Nc4ncccn4)[nH]c3c2)c1 (stereo not shown)
> 7.00

====

# target.entity: c-Raf (Homo sapiens, UniProt P04049)
# Sequence (P04049 whole entry): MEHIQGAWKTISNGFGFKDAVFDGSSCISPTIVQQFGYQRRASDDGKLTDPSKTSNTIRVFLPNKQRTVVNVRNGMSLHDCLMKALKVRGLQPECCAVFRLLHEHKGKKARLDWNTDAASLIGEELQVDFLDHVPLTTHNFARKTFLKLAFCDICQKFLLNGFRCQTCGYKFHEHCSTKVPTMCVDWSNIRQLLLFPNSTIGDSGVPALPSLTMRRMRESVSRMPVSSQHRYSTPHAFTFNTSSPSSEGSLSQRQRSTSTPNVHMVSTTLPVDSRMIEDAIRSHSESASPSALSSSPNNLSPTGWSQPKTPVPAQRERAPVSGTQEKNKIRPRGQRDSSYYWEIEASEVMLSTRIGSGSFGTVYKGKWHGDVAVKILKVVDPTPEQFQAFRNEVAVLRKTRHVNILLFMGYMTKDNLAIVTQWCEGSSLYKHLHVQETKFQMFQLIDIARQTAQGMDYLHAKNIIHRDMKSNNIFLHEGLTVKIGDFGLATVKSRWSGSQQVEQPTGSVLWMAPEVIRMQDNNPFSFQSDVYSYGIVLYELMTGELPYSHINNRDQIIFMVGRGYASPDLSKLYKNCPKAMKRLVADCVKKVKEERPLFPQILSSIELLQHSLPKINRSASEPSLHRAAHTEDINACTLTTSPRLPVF
# assay.method.text: Luciferase-coupled chemiluminescence kinase assay (ATP consumption), c-Raf
# Type: biochemical
# run.conditions: read-out: cRaf-1 (inhibition indicated as IC50)
pIC50: −log10 of the molar value.
property: pIC50

Sample answers from the record:
INSERT INTO measurements (compound, observed) VALUES
  ('C#Cc1cc(N2C(=O)c3ccccc3C2(O)c2ccc3[nH]c(NC(=O)OC)nc3c2)c(F)cc1F (stereo not shown)', '> 7.00'),
  ('CC#CCOC(=O)Nc1nc2cc(C3(O)c4ccccc4C(=O)N3c3ccc(F)cc3)ccc2[nH]1 (stereo not shown)', '> 7.00'),
  ('O=C(Nc1nc2ccc(C3(O)c4ccccc4C(=O)N3c3cccc(Cl)c3F)cc2[nH]1)OCC1CCCO1 (stereo not shown)', '> 7.00');

What measured pIC50 goes with O=C(Nc1nc2ccc(C3(O)c4ccccc4C(=O)N3c3cccc(Cl)c3F)cc2[nH]1)OCCCN1CCCCC1 (stereo not shown) ?
5.00 to 6.00

So what's the measured pIC50 for this one? COC(=O)Nc1nc2ccc(C3(O)c4c(F)ccc(F)c4C(=O)N3c3cc(Cl)ccc3C)cc2[nH]1 (stereo not shown)
> 7.00

Suppose we examine the compound C#Cc1cccc(N2C(=O)c3ccccc3C2(O)c2ccc3[nH]c(NC(=O)OC)nc3c2)c1C (stereo not shown) ; what pIC50 value has been reported?
> 7.00

What value of pIC50 has been recorded for this entry: COC(=O)C(=O)Nc1nc2ccc(C3(O)c4ccccc4C(=O)N3c3cccc(Cl)c3F)cc2[nH]1 (stereo not shown)
5.00 to 6.00
